Below, each entry is listed alongside its reported viability.
Protocol description: reversal of MRP1-mediated doxorubicin resistance, pilot screen, H69AR cells, doxorubicin co-treatment (AID 601)
Test context: H69AR cells, CellTiter-Glo, 72 h; compound alone cytotoxicity; at 10 µM
Write the value in % as a bare number.

[
  {
    "Compound": "Cc1ccc(-n2c(C)cc3c2CCCC3=O)cc1",
    "Measured metric": "viability",
    "Quantitative result": 93.3
  },
  {
    "Compound": "CCOC(=O)C1CCCN(C(=O)c2cccs2)C1 (stereo unspecified)",
    "Measured metric": "viability",
    "Quantitative result": 98.3
  },
  {
    "Compound": "COc1ccc(CN(C)CC(=O)c2c(N)n(Cc3ccccc3)c(=O)n(C)c2=O)c(OC)c1",
    "Measured metric": "viability",
    "Quantitative result": 93.9
  },
  {
    "Compound": "Cn1c(=O)c2c(nc(NCC3CCCO3)n2C)n(C)c1=O (stereo unspecified)",
    "Measured metric": "viability",
    "Quantitative result": 103
  },
  {
    "Compound": "COCCn1c(CN2CCN(c3ccccc3F)CC2)nc2c1c(=O)n(C)c(=O)n2C",
    "Measured metric": "viability",
    "Quantitative result": 95.8
  }
]

Asked: Look at this compound and give its reported viability. `O=C(CSc1nc2ccc(Cl)cc2[nH]1)NCc1ccco1`
Given back: 65.4

Asked: Next entry: `COc1ccc(C(=O)CSc2nc(C)cc(=O)[nH]2)cc1`
Given back: 101

Asked: Same question, `CCOc1ccc(OCC)c(NC(=O)C2CCN(c3ncccn3)CC2)c1` this time
Given back: 86.1

Asked: Then O=C1C2CC=C(Cl)CC2C(=O)N1CNc1ccccn1 (stereo unspecified) ?
Given back: 98.8

Asked: Further, for `CC(C)COc1ccc(-c2nnn(CC(=O)N3CCCC3)n2)cc1` ?
Given back: 104

Asked: Follow-up item: `COc1cc(NS(=O)(=O)c2ccc(N)cc2)ncn1`
Given back: 92

Asked: # iterate: `CCOC(=O)Cc1nnc(Nc2cccc(O)c2)c2ccccc12`
Given back: 106

Asked: Can you check `CCOc1ccc(N(CC(=O)NCc2cccc(OC)c2)S(=O)(=O)c2c(C)noc2C)cc1` next?
Given back: 91.2

Asked: // query: COC(=O)C1C2C=CC3(CN(CC4CCCO4)C(=O)C13)O2 (stereo unspecified)
Given back: 102

Asked: Item: CC1CN(CC(O)COc2ccc(C(C)C)cc2)CC(C)O1 (stereo unspecified)
Given back: 76.2

Asked: Now the compound `COc1cccc(-n2nnc3c(=O)n(Cc4cccc(F)c4)cnc32)c1`
Given back: 99.9

Asked: Here is the next compound: O=C(C1CCCO1)N1CCc2ccccc21 (stereo unspecified)
Given back: 92.4

Asked: Same again, this time with `COC(=O)Cn1c(CCS(=O)(=O)c2ccc(C)cc2)nc2ccccc21`
Given back: 76.4

Asked: How about `O=C(COc1ccc(S(=O)(=O)N2CCCC2)cc1Cl)NC1CC1` ?
Given back: 101

Asked: Next compound up: CCOC(=O)CN1CC23C=CC(O2)C(C(=O)NCc2ccc(F)cc2)C3C1=O (stereo unspecified)
Given back: 98.9

Asked: Another: `C=CCN(CC=C)C(=O)c1ccncc1`
Given back: 102
